experimentalTarget: Vasoactive intestinal polypeptide receptor 2 (Homo sapiens) (UniProt P41587)
Sequence (P41587 whole entry, the tested form may be a part): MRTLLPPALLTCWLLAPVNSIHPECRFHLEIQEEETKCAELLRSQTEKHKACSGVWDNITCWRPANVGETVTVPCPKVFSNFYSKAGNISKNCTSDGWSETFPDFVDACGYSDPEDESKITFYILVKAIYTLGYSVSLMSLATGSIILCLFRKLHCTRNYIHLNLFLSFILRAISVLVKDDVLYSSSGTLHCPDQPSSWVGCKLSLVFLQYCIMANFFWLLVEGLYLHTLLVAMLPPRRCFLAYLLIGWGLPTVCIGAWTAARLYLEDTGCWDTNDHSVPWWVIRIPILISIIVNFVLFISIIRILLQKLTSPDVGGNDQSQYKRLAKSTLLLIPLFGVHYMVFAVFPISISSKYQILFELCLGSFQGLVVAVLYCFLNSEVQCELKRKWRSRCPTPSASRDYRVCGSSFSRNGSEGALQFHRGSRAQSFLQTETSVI
procedureSummary: Antagonist activity at recombinant human N-terminal signal peptide/FLAG epitope-tagged Rluc8-fused VIPR2 expressed in HEK293 cells assessed as inhibition of VIP-induced human mVenus-beta-arrestin2 binding at 1 uM preincubated for 5 mins with luciferin, coelenterazine H followed by VIP addition measured after 5 mins by BRET assay relative to control
Assay type: cell-based
# inhibition per entry
Hi! Could you send only the number? It should be in %, unit omitted.

Use the examples below as a reference point.
CCCCNC(=O)[C@H](Cc1ccccc1)C[C@H](O)CNS(=O)(=O)c1ccc([N+](=O)[O-])cc1 : 1.9
CC(=O)Nc1ccc(S(=O)(=O)NC[C@@H](O)C[C@@H](Cc2ccccc2)C(=O)N[C@H]2c3ccccc3C[C@H]2O)cc1 : 4.9
O=C(NN1CCCCC1)[C@H](Cc1ccccc1)C[C@H](O)CNS(=O)(=O)c1ccc([N+](=O)[O-])cc1 : 4.4

Form field: inhibition recorded for O=C(CCN1C(=O)C=CC1=O)NC[C@@H](O)C[C@@H](Cc1ccccc1)C(=O)N[C@H]1c2ccccc2C[C@H]1O with Vasoactive intestinal polypeptide receptor 2 (Homo sapiens) (UniProt P41587) (enter value)
15.2

Lookup: inhibition / Vasoactive intestinal polypeptide receptor 2 (Homo sapiens) (UniProt P41587) / O=C(NC1CCCC1)[C@H](Cc1ccccc1)C[C@H](O)CNS(=O)(=O)c1ccc([N+](=O)[O-])cc1
17.1
